- System: HCI-008 (organoid from a HER2-enriched breast cancer xenograft)
- measurementDescription: CTG-3D luminescence at 96 h relative to day-0 seeding control (ratio to day 0); higher = more growth / less cytotoxicity; PDxO 3D drug screen (set 2), 96 h, CTG-3D normalised to day-0 seeding control.
- condition: 12.5 pM; days in culture: 354
readout: CTG-3D luminescence at 96 h
One number for each entry.

Below are worked cases with known answers.
smilesstructure=O=C(c1cc(Cc2n[nH]c(=O)c3ccccc23)ccc1F)N1CCN(C(=O)C2CC2)CC1 measvalue=1.36
smilesstructure=CO[C@H]1C[C@@H]2CC[C@@H](C)[C@@](O)(O2)C(=O)C(=O)N2CCCC[C@H]2C(=O)O[C@H]([C@H](C)C[C@@H]2CC[C@@H](O)[C@H](OC)C2)CC(=O)[C@H](C)/C=C(\C)[C@@H](O)[C@@H](OC)C(=O)[C@H](C)C[C@H](C)/C=C/C=C/C=C/1C measvalue=1.17

Quick one: give me CTG-3D luminescence at 96 h for each item below, same order please.
1. CO[C@H]1C[C@@H]2CC[C@@H](C)[C@@](O)(O2)C(=O)C(=O)N2CCCC[C@H]2C(=O)O[C@H]([C@H](C)C[C@@H]2CC[C@@H](OCCO)[C@H](OC)C2)CC(=O)[C@H](C)/C=C(\C)[C@@H](O)[C@@H](OC)C(=O)[C@H](C)C[C@H](C)/C=C/C=C/C=C/1C
2. CC(C)n1nc(-c2ccc3oc(N)nc3c2)c2c(N)ncnc21

// result
[1.49, 1.18]
